# Target Under Test: Scavenger receptor class B member 1 (Mus musculus)
# Experiment: SR-BI mediated DiI-HDL lipid uptake blockers – ldlA[mSR-BI] CHO cells, fluorescence plate reader, dry powder, set 8, dose response (AID 602285)
# Setup Conditions: 3 h

Smiles Structure | AC50
C[C@@H]1CN([C@H](C)CO)C(=O)c2cc(NC(=O)Cc3cn(C)c4ccccc34)ccc2O[C@H]1CN(C)C | 17.9 µM
C[C@@H]1CN([C@@H](C)CO)C(=O)Cc2cc(N(C)C)ccc2O[C@@H]1CN(C)Cc1ccc(C(=O)O)cc1 | 34.4 µM
C[C@@H]1CN([C@H](C)CO)C(=O)c2cc(NS(C)(=O)=O)ccc2O[C@H]1CN(C)S(=O)(=O)c1ccc(Cl)cc1 | 1.64 µM
C[C@@H]1CN([C@H](C)CO)C(=O)c2cc(NS(=O)(=O)c3cccs3)ccc2O[C@H]1CN(C)S(=O)(=O)c1ccc(Cl)cc1 | 3.77 µM

###

# Target Under Test: Scavenger receptor class B member 1 (Mus musculus) (UniProt Q61009)
# Sequence (Q61009 whole entry, looked up): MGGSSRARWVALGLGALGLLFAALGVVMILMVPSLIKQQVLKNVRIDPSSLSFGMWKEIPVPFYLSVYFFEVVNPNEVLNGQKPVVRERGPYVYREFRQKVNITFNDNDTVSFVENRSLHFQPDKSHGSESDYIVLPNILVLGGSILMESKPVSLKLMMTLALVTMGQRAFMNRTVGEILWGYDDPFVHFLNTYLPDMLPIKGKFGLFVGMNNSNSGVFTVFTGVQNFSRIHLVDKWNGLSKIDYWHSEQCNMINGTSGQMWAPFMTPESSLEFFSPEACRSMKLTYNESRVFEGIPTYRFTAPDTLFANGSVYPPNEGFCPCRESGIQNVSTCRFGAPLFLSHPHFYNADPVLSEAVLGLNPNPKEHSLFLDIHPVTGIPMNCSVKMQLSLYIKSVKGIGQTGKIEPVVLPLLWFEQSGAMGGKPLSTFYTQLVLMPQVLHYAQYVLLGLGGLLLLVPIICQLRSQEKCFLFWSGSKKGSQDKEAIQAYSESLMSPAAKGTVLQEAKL
# Experiment: SR-BI mediated DiI-HDL lipid uptake blockers – ldlA[mSR-BI] CHO cells, fluorescence plate reader, dry powder, set 8, dose response (AID 602285)
# Setup Conditions: 3 h
Recorded AC50 values for a group of molecules are listed next.
Measured Attribute: AC50

Smiles Structure | Measured Attribute | Result
COc1ccc(S(=O)(=O)N(C)C[C@@H]2Oc3ccc(NC(=O)Cc4cn(C)c5ccccc45)cc3C(=O)N([C@H](C)CO)C[C@H]2C)cc1 | AC50 | 2010 nM
C[C@@H]1CN([C@H](C)CO)C(=O)c2cc(NC(=O)CCCCCC(=O)Nc3ccccc3N)ccc2O[C@H]1CN(C)S(=O)(=O)c1ccc(Cl)cc1 | AC50 | 563 nM
COc1ccc(NC(=O)N(C)C[C@@H]2Oc3ccc(NC(=O)Cc4cn(C)c5ccccc45)cc3C(=O)N([C@H](C)CO)C[C@H]2C)cc1 | AC50 | 1750 nM
C[C@@H]1CN([C@H](C)CO)C(=O)c2cc(NC(=O)Cc3cn(C)c4ccccc34)ccc2O[C@H]1CN(C)C(=O)NC1CCCCC1 | AC50 | 9180 nM

###

Recorded AC50 values for a group of compounds are listed next.
# Target Under Test: Scavenger receptor class B member 1 (Mus musculus)
# Experiment: SR-BI mediated DiI-HDL lipid uptake blockers – ldlA[mSR-BI] CHO cells, fluorescence plate reader, dry powder, set 8, dose response (AID 602285)
# Setup Conditions: 3 h
The source made the active and inactive calls.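 How the source made its calls: active means AC50 at or below twice the top valid dose for that sample, with falling signal; inconclusive means flat curve with inhibition of 30 to 70%, or poor fit; inactive means activity in the wrong direction, plus the rest.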

Compound | AC50
C[C@@H]1CN([C@H](C)CO)C(=O)c2cc(NC(=O)CCN3CCOCC3)ccc2O[C@H]1CN(C)S(=O)(=O)c1ccc(Cl)cc1 | 4.95 µM
C[C@@H]1CN([C@H](C)CO)C(=O)Cc2cc(NC(=O)Cc3cn(C)c4ccccc34)ccc2O[C@H]1CN(C)S(=O)(=O)c1ccc(F)cc1 | 33.2 µM
C[C@H](CO)N1C[C@H](C)[C@H](CN(C)CC2CCCCC2)Oc2c(NS(=O)(=O)c3cn(C)cn3)cccc2C1=O | > 70 µM (inactive)
COc1ccc(-c2nnn(CC(=O)N(C3CCCCC3)C(C)C(=O)NC3CCCCC3)n2)cc1OC (centres undefined) | 0.2 µM

###

# Target Under Test: Scavenger receptor class B member 1 (Mus musculus)
# Experiment: SR-BI mediated DiI-HDL lipid uptake blockers – ldlA[mSR-BI] CHO cells, fluorescence plate reader, dry powder, set 8, dose response (AID 602285)
# Setup Conditions: 3 h

Smiles Structure | AC50
C[C@@H]1CN([C@H](C)CO)C(=O)c2cc(NC(=O)Cc3cn(C)c4ccccc34)ccc2O[C@H]1CN(C)C(=O)Nc1ccccc1 | 4.92 µM
C[C@@H]1CN([C@@H](C)CO)C(=O)Cc2cc(NS(C)(=O)=O)ccc2O[C@@H]1CN(C)Cc1ccc(C(F)(F)F)cc1 | 22.3 µM
C[C@@H]1CN([C@H](C)CO)C(=O)c2cc(NC(=O)Cc3cn(C)c4ccccc34)ccc2O[C@H]1CN(C)CC1CCCCC1 | 9.24 µM
C[C@@H]1CN([C@H](C)CO)C(=O)c2cc(NC(=O)Nc3ccc(F)cc3)ccc2O[C@H]1CN(C)S(=O)(=O)c1ccc(Cl)cc1 | 0.0708 µM
Cc1noc(C)c1NC(=O)N(C)C[C@@H]1Oc2ccc(NC(=O)Cc3cn(C)c4ccccc34)cc2C(=O)N([C@H](C)CO)C[C@H]1C | 6.97 µM
C[C@H](CO)N1C[C@H](C)[C@@H](CN(C)S(=O)(=O)c2ccc(Cl)cc2)Oc2ccc(NC(=O)Cc3cn(C)c4ccccc34)cc2C1=O | 8.91 µM
C[C@@H]1CN([C@H](C)CO)C(=O)c2cc(NC(=O)Cc3cn(C)c4ccccc34)ccc2O[C@H]1CN(C)Cc1ccc(C(=O)O)cc1 | 11.8 µM
COc1ccc(NC(=O)Nc2ccc3c(c2)C(=O)N([C@H](C)CO)C[C@@H](C)[C@H](CN(C)S(=O)(=O)c2ccc(Cl)cc2)O3)cc1 | 0.304 µM
C[C@H]1CN([C@@H](C)CO)C(=O)c2cc(NC(=O)Cc3cn(C)c4ccccc34)ccc2O[C@H]1CN(C)S(=O)(=O)c1ccc(Cl)cc1 | 12.3 µM
CC(C)NC(=O)Nc1ccc2c(c1)C(=O)N([C@H](C)CO)C[C@@H](C)[C@H](CN(C)S(=O)(=O)c1ccc(Cl)cc1)O2 | 0.123 µM
Cc1noc(C)c1NC(=O)N(C)C[C@H]1Oc2cc(C#CCC3CCCC3)ccc2S(=O)(=O)N([C@H](C)CO)C[C@@H]1C | 0.094 µM
